# experiment summary: Solubility in bio-relevant media
# Type: physicochemical
# run parameters: FaSSIF; 2 h
measured property: solubility at 2 h (µg/mL)
Give bare numbers, in µg/mL.

-- ask Name the recorded solubility at 2 h of the item C=CC(=O)Nc1cc(Nc2nccc(Nc3cc(Cl)c(F)cc3C(C)(C)O)n2)c(OC)cc1N1CC[C@@H](N(C)C)C1 [Form B] in your answer.
-- reply 160

====

# experiment summary: Solubility in bio-relevant media
# Type: physicochemical
# run parameters: FeSSIF; 0.5 h
measured property: solubility at 0.5 h (µg/mL)
One number for each entry, in µg/mL.

-- ask Name the recorded solubility at 0.5 h of the item C=CC(=O)Nc1cc(Nc2nccc(Nc3cc(Cl)c(F)cc3C(C)(C)O)n2)c(OC)cc1N1CC[C@@H](N(C)C)C1 [Form B] in your answer.
-- reply 3180

====

# experiment summary: Solubility in bio-relevant media
# Assay type: physicochemical
# run parameters: FaSSIF; 24 h
measured property: solubility at 24 h (µg/mL)
One number for each entry, in µg/mL.

-- ask Name the recorded solubility at 24 h of the item C=CC(=O)Nc1cc(Nc2nccc(Nc3cc(Cl)c(F)cc3C(C)(C)O)n2)c(OC)cc1N1CC[C@@H](N(C)C)C1 [Form B] in your answer.
-- reply 240

====

# study system: EGFR 19Del (Homo sapiens, UniProt P00533, DEL746-750)
# Construct: Form A and B in vitro cell based assay; endogenous in cells
# Sequence (P00533 with tags, fused parts or gaps DEL746-750): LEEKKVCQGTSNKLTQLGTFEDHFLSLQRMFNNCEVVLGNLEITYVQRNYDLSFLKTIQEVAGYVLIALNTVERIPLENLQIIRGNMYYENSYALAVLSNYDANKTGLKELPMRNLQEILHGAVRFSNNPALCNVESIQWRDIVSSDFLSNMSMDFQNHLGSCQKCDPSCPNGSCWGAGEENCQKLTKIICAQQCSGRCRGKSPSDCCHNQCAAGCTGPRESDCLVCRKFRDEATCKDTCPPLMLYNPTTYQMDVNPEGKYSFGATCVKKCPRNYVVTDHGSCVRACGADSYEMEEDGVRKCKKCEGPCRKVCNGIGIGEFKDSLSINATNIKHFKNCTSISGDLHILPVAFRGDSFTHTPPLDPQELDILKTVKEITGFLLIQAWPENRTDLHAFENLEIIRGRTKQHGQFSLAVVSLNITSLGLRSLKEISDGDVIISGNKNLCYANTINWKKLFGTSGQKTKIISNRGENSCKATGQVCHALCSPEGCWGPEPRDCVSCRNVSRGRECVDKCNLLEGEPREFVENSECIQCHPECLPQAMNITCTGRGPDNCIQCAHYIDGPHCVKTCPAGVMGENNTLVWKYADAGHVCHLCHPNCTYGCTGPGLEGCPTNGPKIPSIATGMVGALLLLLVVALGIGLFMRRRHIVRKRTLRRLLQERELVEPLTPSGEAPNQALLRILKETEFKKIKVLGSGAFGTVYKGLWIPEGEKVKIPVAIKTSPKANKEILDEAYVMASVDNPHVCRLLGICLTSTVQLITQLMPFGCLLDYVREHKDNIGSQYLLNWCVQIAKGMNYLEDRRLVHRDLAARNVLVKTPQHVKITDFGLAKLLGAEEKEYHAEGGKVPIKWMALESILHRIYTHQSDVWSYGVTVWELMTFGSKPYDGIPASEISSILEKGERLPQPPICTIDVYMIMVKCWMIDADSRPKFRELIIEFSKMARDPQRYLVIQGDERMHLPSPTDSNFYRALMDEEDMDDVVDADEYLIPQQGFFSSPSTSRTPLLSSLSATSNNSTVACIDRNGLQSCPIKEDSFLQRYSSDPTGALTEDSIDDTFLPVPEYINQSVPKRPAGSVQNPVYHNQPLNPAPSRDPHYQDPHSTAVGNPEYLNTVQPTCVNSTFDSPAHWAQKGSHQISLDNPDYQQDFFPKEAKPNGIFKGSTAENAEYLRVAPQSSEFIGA
# experiment summary: In vitro cell based assay, PD IC50, PC-9
Please go through the items and note down their IC50.
One number for each entry, in nM.

C=CC(=O)Nc1cc(Nc2nccc(Nc3cc(Cl)c(F)cc3C(C)(C)O)n2)c(OC)cc1N1CC[C@@H](N(C)C)C1 [Form B] :: 2.29

# context switch: different compound, same IC50
-- ask Name the recorded IC50 of the item C=CC(=O)Nc1cc(Nc2nccc(Nc3cc(Cl)c(F)cc3C(C)(C)O)n2)c(OC)cc1N1CC[C@@H](N(C)C)C1 [Form A] in your answer.
-- reply 2.13

====

# experiment summary: Solubility in organic solvents and water
# Format: physicochemical
# run parameters: water; r.t.; read-out: Solubility
measured property: Solubility

-- ask Name the recorded Solubility of the item C=CC(=O)Nc1cc(Nc2nccc(Nc3cc(Cl)c(F)cc3C(C)(C)O)n2)c(OC)cc1N1CC[C@@H](N(C)C)C1 [Form A] in your answer.
-- reply < 2040 µg/mL

====

# experiment summary: PK study of Form A and Form B in Rat
# Assay type: in vivo
# run parameters: rat, in vivo, 25 mg/kg, read-out: Mean t1/2 (converted)
measured property: half-life (h)
Numbers only, in h.

-- ask Name the recorded half-life of the item C=CC(=O)Nc1cc(Nc2nccc(Nc3cc(Cl)c(F)cc3C(C)(C)O)n2)c(OC)cc1N1CC[C@@H](N(C)C)C1 [Form A] in your answer.
-- reply 4.4

====

# experiment summary: Solubility in organic solvents and water
# Type: physicochemical
# run parameters: MeOH, organic solvent or mixture, MeOH; r.t.; read-out: Solubility
measured property: Solubility

-- ask Name the recorded Solubility of the item C=CC(=O)Nc1cc(Nc2nccc(Nc3cc(Cl)c(F)cc3C(C)(C)O)n2)c(OC)cc1N1CC[C@@H](N(C)C)C1 [Form A] in your answer.
-- reply 24.8 to 49.5 mg/mL

Hello, the source for this data is patent US20250197377A1, in case you need it.
